# assay-remarks: Log P by HPLC on reversed phase columns (EEC directive 79/831 Annex V.A8)
# Type: physicochemical
# condition-info: method [a]
Measured LogP, listed per entry for reference.
value-type: LogP

molecule="NC(=O)CCC(NC(=O)c1sc(Br)c(Br)c1F)C(=O)O (stereo not shown)" value_type=LogP assay_result=1.65^[a]
molecule=O=C(NC1(C(=O)O)CCC1)c1sc(Br)c(Br)c1F value_type=LogP assay_result=2.62^[a]
molecule="O=C(NC(Cc1ccccc1)C(=O)O)c1sc(Br)c(Br)c1F (stereo not shown)" value_type=LogP assay_result=3.22^[a]
molecule=CCOC(=O)C1(NC(=O)c2sc(Cl)c(Br)c2Cl)CC1 value_type=LogP assay_result=3.47^[a]
molecule=CCOC(=O)[C@H](CO)NC(=O)c1sc(C#N)c(Cl)c1C value_type=LogP assay_result=2.07^[a]
molecule=CNC(=O)C1(NC(=O)c2sc(Br)c(Br)c2Cl)CC1 value_type=LogP assay_result=2.31^[a]
molecule="COC(=O)C(NC(=O)c1sc(Br)c(Br)c1I)C1CC1 (stereo not shown)" value_type=LogP assay_result=3.81^[a]
molecule=N#CCNC(=O)c1sc(Br)c(Br)c1C#N value_type=LogP assay_result=2.11^[a]
molecule=CCOC(=O)C1(NC(=O)c2sc(Br)c(Br)c2C#N)CCC1 value_type=LogP assay_result=3.23^[a]
molecule="CC(C)CC(NC(=O)c1sc(Br)c(Br)c1F)C(=O)O (stereo not shown)" value_type=LogP assay_result=3.34^[a]

* * *

# assay-remarks: Log P by HPLC on reversed phase columns (EEC directive 79/831 Annex V.A8)
# Type: physicochemical
# condition-info: method marked [a]
Measured LogP, listed per entry for reference.
value-type: LogP

compound=CNC(=O)CNC(=O)c1sc(Cl)c(Cl)c1Br assay_result=2.08^[a]
compound=CCCOC(=O)C1(NC(=O)c2sc(Br)c(Cl)c2C)CC1 assay_result=3.62^[a]
compound=COC(=O)CNC(=O)c1sc(F)c(Br)c1Br assay_result=2.60^[a]
compound="COC(=O)C(NC(=O)c1sc(Br)c(C#N)c1Cl)C1CC1 (stereo not drawn)" assay_result=2.99^[a]
compound=N#CCNC(=O)c1cc(Br)c(C(F)(F)F)s1 assay_result=2.61^[a]
compound="CCOC(=O)C(Cc1ccccc1)NC(=O)c1cc(C#N)c(Cl)s1 (stereo not drawn)" assay_result=3.47^[a]
compound=COC(=O)[C@H](CCSC)NC(=O)c1sc(Br)c(Br)c1Cl assay_result=4.04^[a]
compound=CCOC(=O)C(NC(=O)c1sc(Br)c(Br)c1Cl)C(=O)OCC assay_result=4.33^[a]
compound=COC(=O)C1(NC(=O)c2cc(Br)c(C(F)(F)F)s2)CC1 assay_result=2.87^[a]
compound=CCOC(=O)[C@H](CCSC)NC(=O)c1sc(Br)c(Cl)c1C assay_result=4.01^[a]
compound="CCOC(=O)C(NC(=O)c1cc(Cl)c(C#N)s1)C(C)C (stereo not drawn)" assay_result=3.22^[a]
compound=CCOC(=O)C1(NC(=O)c2sc(Cl)c(C#N)c2Br)CCC1 assay_result=3.28^[a]
compound="O=C(NC(C(=O)O)C1CC1)c1sc(Cl)c(Cl)c1Br (stereo not drawn)" assay_result=2.95^[a]
compound="CCOC(=O)C(NC(=O)c1cc(C#N)c(Cl)s1)C(C)C (stereo not drawn)" assay_result=3.20^[a]
compound="CCOC(=O)C(Cc1ccccc1)NC(=O)c1sc(Br)c(Br)c1C(F)F (stereo not drawn)" assay_result=4.34^[a]
compound="CCOC(=O)C(NC(=O)c1sc(Br)c(C#N)c1Cl)C(C)C (stereo not drawn)" assay_result=3.83^[a]
compound="COC(=O)C(CCSC)NC(=O)c1sc(Cl)c(Br)c1C (stereo not drawn)" assay_result=3.63^[a]
compound=CCOC(=O)C(NC(=O)c1sc(Cl)c(Cl)c1Br)C(=O)OCC assay_result=4.30^[a]
compound="CCOC(=O)C(CC(C)C)NC(=O)c1sc(Br)c(Br)c1C(F)F (stereo not drawn)" assay_result=4.45^[a]
compound="CCOC(=O)C(Cc1ccccc1)NC(=O)c1sc(F)c(Br)c1C (stereo not drawn)" assay_result=4.23^[a]
compound=CCOC(=O)CNC(=O)c1sc(C#N)c(Cl)c1Br assay_result=2.64^[a]

* * *

Measured LogP, listed per entry for reference.
# assay-remarks: Log P by HPLC on reversed phase columns (EEC directive 79/831 Annex V.A8)
# Format: physicochemical
# condition-info: method marker [a] given with each value; Table 1.1, compounds of formula (I)
value-type: LogP

compound=O=C(CNC(=O)c1sc(Br)c(Br)c1Cl)OC1CCCC1 assay_result=4.28^[a]
compound="COC(=O)C(CCSC)NC(=O)c1sc(Br)c(Br)c1C(F)F (stereo not drawn)" assay_result=3.55^[a]
compound=COC(=O)[C@H](CC(=O)O)NC(=O)c1sc(Cl)c(Cl)c1Br assay_result=2.58^[a]
compound="COC(=O)C(NC(=O)c1sc(Cl)c(Cl)c1Br)c1cccs1 (racemic)" assay_result=4.26^[a]
compound=CCOC(=O)C1(NC(=O)c2sc(Cl)c(Cl)c2C(F)F)CSC1 assay_result=3.55^[a]
compound=O=C(NC1(C(=O)O)CCC1)c1sc(Cl)c(Cl)c1Br assay_result=2.95^[a]
compound=O=C(CNC(=O)c1sc(Br)c(Br)c1Cl)OCC1CC1 assay_result=3.79^[a]
compound=COC(=O)C(C)(C)NC(=O)c1sc(Br)c(Br)c1Cl assay_result=3.75^[a]
compound="CCOC(=O)C(CO)NC(=O)c1sc(Cl)c(Cl)c1C(F)F (stereo not drawn)" assay_result=2.67^[a]
compound=O=C(CNC(=O)c1sc(Br)c(Br)c1Cl)OCc1ccccc1 assay_result=4.15^[a]
compound="N#CC1(NC(=O)c2sc(Br)c(Br)c2F)CCCSC1 (stereo not drawn)" assay_result=3.41^[a]
compound="COC(=O)C(C)(Cc1ccccc1)NC(=O)c1sc(Br)c(Br)c1Cl (racemic)" assay_result=5.12^[a]
compound=COC(=O)[C@H](CCC(=O)O)NC(=O)c1sc(Cl)c(Cl)c1Br assay_result=2.68^[a]
compound=COC(=O)C1(NC(=O)c2sc(Cl)c(Cl)c2Br)CCC1 assay_result=3.85^[a]
compound=C=CCOC(=O)CNC(=O)c1sc(Br)c(Br)c1Cl assay_result=3.50^[a]
compound=CNC(=S)CNC(=O)c1sc(Br)c(Br)c1F assay_result=2.56^[a]
compound=COC(=O)C1(NC(=O)c2sc(Br)c(Br)c2F)CCC1 assay_result=3.32^[a]
compound=CN(C)C(=S)C1(NC(=O)c2sc(Br)c(Br)c2F)CC1 assay_result=2.93^[a]
compound=CC(C)(C)OC(=O)CNC(=O)c1sc(Br)c(Br)c1Cl assay_result=4.20^[a]
compound=COC(=O)C(NC(=O)c1sc(Br)c(Br)c1C(F)F)C(=O)OC assay_result=3.05^[a]
compound=CCOC(=O)C1(NC(=O)c2sc(C#N)c(Cl)c2Cl)CSC1 assay_result=3.23^[a]

* * *

# assay-remarks: Log P by HPLC on reversed phase columns (EEC directive 79/831 Annex V.A8)
# Assay type: physicochemical
# condition-info: method [a]; compounds of formula (I), Table 1.1
# Description: In the above tables, measurement of Log P values was performed according to EEC directive 79/831 Annex V.A8 by HPLC (High Performance Liquid Chromatography) on reversed phase columns with the following methods: • ^[a] […] Lambda-max-values were determined using UV-spectra from 200 nm to 400 nm and the peak values of the chromatographic signals.
value-type: LogP

compound="CCOC(=O)C(NC(=O)c1sc(I)c(Br)c1C)C(C)C (stereo not shown)" value_type=LogP assay_result=4.30^[a]
compound=CCOC(=O)C1(NC(=O)c2sc(Br)c(Cl)c2C)CCC1 value_type=LogP assay_result=3.67^[a]
compound="Cc1c(C(=O)NC(C#N)c2ccccc2)sc(Cl)c1Br (stereo not shown)" value_type=LogP assay_result=3.85^[a]
compound=CCOC(=O)C1(NC(=O)c2sc(Br)c(Br)c2F)CCOCC1 value_type=LogP assay_result=3.13^[a]
compound=N#CC1(NC(=O)c2sc(Br)c(Br)c2F)CCC1 value_type=LogP assay_result=3.11^[a]
compound="CCOC(=O)C(NC(=O)c1sc(Br)c(I)c1C)C(C)C (stereo not shown)" value_type=LogP assay_result=4.37^[a]
compound="CCSC(=O)C(NC(=O)c1sc(Br)c(Br)c1F)C(C)C (racemic)" value_type=LogP assay_result=4.87^[a]
compound="CCOC(=O)C(Cc1ccccc1)NC(=O)c1cc(Br)c(C#N)s1 (stereo not shown)" value_type=LogP assay_result=3.50^[a]
compound="CCOC(=O)C(NC(=O)c1sc(Br)c(Cl)c1C)C(C)C (stereo not shown)" value_type=LogP assay_result=4.25^[a]
compound=O=C(CNC(=O)c1sc(Br)c(Br)c1F)Sc1ccccc1 value_type=LogP assay_result=3.89^[a]
